The origin of these recorded values is ChEMBL document CHEMBL1201862.

Form: system (Cytochrome P450 1A2 (Homo sapiens, UniProt P05177)), quantity (AC50), values below.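 Further: PubChem cytochrome P450 panel assay, CYP1A2 panel member.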

Returns the measured AC50 for the input compound. Input: COCCn1c(=O)c(-c2ccc(OC)cc2)nc2cnc(Oc3cccc(Cl)c3)nc21
6.31 µM (inconclusive)

Let us now turn to NS(=O)(=O)c1ccc(NC(=O)Nc2cccc3ccccc23)cc1
1 µM (inconclusive)

Let us now turn to CC1(C)CC2(CC(C)(C(=O)CSc3nc4ccccc4s3)OC2=O)C(=O)O1 (stereo not drawn)
28.2 µM (inconclusive)
